- tgt: Oxytocin receptor (Rattus norvegicus, UniProt P70536)
- Sequence (P70536 whole entry): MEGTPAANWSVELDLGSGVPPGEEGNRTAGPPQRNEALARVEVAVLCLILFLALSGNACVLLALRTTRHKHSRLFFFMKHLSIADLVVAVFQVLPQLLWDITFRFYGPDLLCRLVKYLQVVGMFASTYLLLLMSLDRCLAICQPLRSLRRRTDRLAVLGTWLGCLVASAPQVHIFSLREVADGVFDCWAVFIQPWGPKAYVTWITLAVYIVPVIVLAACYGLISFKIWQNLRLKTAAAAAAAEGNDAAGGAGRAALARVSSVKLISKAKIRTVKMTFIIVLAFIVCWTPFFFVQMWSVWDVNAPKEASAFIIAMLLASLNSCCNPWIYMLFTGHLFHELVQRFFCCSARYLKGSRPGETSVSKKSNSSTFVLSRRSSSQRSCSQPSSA
pKi: −log10 of the molar value. Non-standard residues stand in square brackets, D forms with d. Residues, ends and D or L forms follow the SMILES beside them. Piz(1,6-dehydro) = O=C(O)[C@@H]1CCC=NN1; dPiz(1,6-dehydro) = O=C(O)[C@H]1CCC=NN1; dNMeF = CN[C@H](Cc1ccccc1)C(=O)O; Pip = O=C(O)[C@@H]1CCCCN1; dPip = O=C(O)[C@H]1CCCCN1; Orn = NCCC[C@H](N)C(=O)O
quantity: pKi

molecule	pKi
CC[C@H](C)[C@@H]1NC(=O)[C@@H](Cc2c[nH]c3ccccc23)NC(=O)[C@@H]2CCCN2C(=O)[C@@H](Cc2ccccc2)N(C)C(=O)[C@H](CCCN)NC(=O)[C@H]2CCCCN2C1=O (cyclo(I[dPip][Orn][dNMeF]P[dW]))	7.31

a: CCOc1ccc(C[C@H]2NC(=O)[C@@H]3CCCN3C(=O)[C@@H](Cc3ccccc3)N(C)C(=O)[C@@H]3CCCCN3C(=O)[C@H]3CCCCN3C(=O)[C@H]([C@@H](C)CC)NC2=O)cc1 (cyclo(I[dPip][Pip][dNMeF]P[dY](Et)))
b: CC[C@H](C)[C@@H]1NC(=O)[C@@H](Cc2ccccc2)NC(=O)[C@@H]2CCCN2C(=O)[C@@H](Cc2ccccc2)N(C)C(=O)[C@@H]2CCC=NN2C(=O)[C@H]2CCC=NN2C1=O (cyclo(I[dPiz(1,6-dehydro)][Piz(1,6-dehydro)][dNMeF]P[dF]))
Lookup: Hi! Which is lower in terms of pKi, the first one a or the second one b ? Answer format: the label of the selected item.
Found: a
(a: 7.31, b: 8.14)
